Entry source: patent US11419806B2

- System: Porphyromonas gingivalis
- Assay info: Phenotype microarray metabolic activity
- Format: cell-based
- Assay context: P gingivalis; 48 hrs
Listing of entries alongside the reported metabolic activity: OD 492 nm divided by OD of control (control = 1).
Field format: numeric only.

Worked examples, 4 compounds total:
CC(=O)N[C@H](C=O)[C@@H](O)[C@H](O)[C@H](O)CO: 0.8296
O[C@H]1[C@H](O)[C@@H](O)[C@H](O)[C@@H](O)[C@H]1O: 0.7871
OC[C@H]1O[C@@](O)(CO)[C@@H](O[C@H]2O[C@H](CO)[C@@H](O)[C@H](O)[C@H]2O)[C@@H]1O: 0.7822
OC[C@@H](O)[C@@H](O[C@H]1O[C@H](CO)[C@H](O)[C@H](O)[C@H]1O)[C@H](O)[C@@H](O)CO: 1.0092

From here, focus on the item given below.
Prompt: Supply recorded metabolic activity: OD 492 nm divided by OD of control (control = 1) for `OC[C@H]1O[C@@](CO)(O[C@H]2O[C@H](CO)[C@@H](O)[C@H](O)[C@H]2O)[C@@H](O[C@H]2O[C@H](CO)[C@@H](O)[C@H](O)[C@H]2O)[C@@H]1O` here.
Response: 0.7811

----------
- System: T. forsythia
- Assay info: Twenty-four hour biofilm growth (crystal violet)
- Format: cell-based
- Assay context: 25 μmol/ml
Experimental endpoint: biofilm growth: OD 630 nm at 24 hrs divided by OD of control (control = 1)
Field format: numeric only.

Worked examples, 3 compounds total:
O[C@H]1[C@H](O)[C@@H](O)[C@H](O)[C@@H](O)[C@H]1O [Myo-Inositol]: 0.6940
OC[C@@H](O)[C@@H](O[C@H]1O[C@H](CO)[C@H](O)[C@H](O)[C@H]1O)[C@H](O)[C@@H](O)CO [D-Lactitol, 4-O-α-D-galactopyranosyl-D-glucitol]: 0.6158
CC(=O)N[C@H](C=O)[C@@H](O)[C@H](O)[C@H](O)CO [N-acetyl-D-mannosamine, 2-acetamido-2-deoxy-D-mannose]: 0.5433

From here, focus on the item given below.
Prompt: Supply recorded biofilm growth: OD 630 nm at 24 hrs divided by OD of control (control = 1) for OC[C@H]1O[C@@](O)(CO)[C@@H](O[C@H]2O[C@H](CO)[C@@H](O)[C@H](O)[C@H]2O)[C@@H]1O [D-Turanose] here.
Response: 0.8404

----------
- System: S. gordonii
- Assay info: Twenty-four hour biofilm growth (crystal violet)
- Assay type: cell-based
- Assay context: 25 μmol/ml
Experimental endpoint: biofilm growth: OD 630 nm at 24 hrs divided by OD of control (control = 1)
Field format: numeric only.

Worked examples, 3 molecules total:
O[C@H]1[C@H](O)[C@@H](O)[C@H](O)[C@@H](O)[C@H]1O: 0.6716
OC[C@@H](O)[C@@H](O[C@H]1O[C@H](CO)[C@H](O)[C@H](O)[C@H]1O)[C@H](O)[C@@H](O)CO: 0.5149
CC(=O)N[C@H](C=O)[C@@H](O)[C@H](O)[C@H](O)CO: 0.6746

From here, focus on the item given below.
Prompt: Supply recorded biofilm growth: OD 630 nm at 24 hrs divided by OD of control (control = 1) for `OC[C@H]1O[C@@](O)(CO)[C@@H](O[C@H]2O[C@H](CO)[C@@H](O)[C@H](O)[C@H]2O)[C@@H]1O` here.
Response: 1.2536
